system-name: cathepsin B enzyme from human liver (Homo sapiens, UniProt P07858)
Construct: from human liver; purchased Millipore; host or cells: human liver
assay-summary: Fluorometric kinetic enzyme assay, cathepsin B (Cbz-Arg-Arg-AMC)
Assay type: biochemical
condition-label: human liver enzyme, Cbz-Arg-Arg-AMC, pH 6.0; N.I. = no inhibition at 130 μM; read-out: IC50 Cathepsin B
Quick reference: IC50 of the listed items.

Guide cases for IC50, answers given:
- compound: "CC(=O)N[C@H]1Cc2ccc([N+](=O)[O-])c(c2)Oc2ccc(cc2)C[C@@H](C(=O)N[C@@H](CC(C)C)C(=O)[C@@]2(C)CO2)NC(=O)[C@H](CC(C)C)NC1=O [15a]"
  outcome-measure: "IC50"
  measurement: "> 130 µM"
- compound: "CC(=O)N[C@H]1Cc2ccc([N+](=O)[O-])c(c2)Oc2ccc3c(c2)C(C[C@@H](C(=O)N[C@@H](CC(C)C)C(N)=O)NC(=O)[C@H](CC(C)C)NC1=O)C(=O)N3 (stereo partly drawn)"
  outcome-measure: "IC50"
  measurement: "> 130 µM"
- compound: "CC(=O)N[C@H]1Cc2ccc([N+](=O)[O-])c(c2)Oc2ccc3c(c2)C(C[C@@H](C(=O)N[C@@H](CC(C)C)C(=O)[C@@]2(C)CO2)NC(=O)[C@H](CC(C)C)NC1=O)C(=O)N3 (stereo partly drawn)"
  outcome-measure: "IC50"
  measurement: "> 130 µM"

Fill blank: measured IC50 of the compound CC(C)C[C@H](NC(=O)[C@H](CCc1ccccc1)NC(=O)CN1CCOCC1)C(=O)N[C@@H](Cc1ccccc1)C(=O)N[C@@H](CC(C)C)C(=O)[C@@]1(C)CO1 [carfilzomib, reference compound] is ____.
> 130 µM

Give its IC50 value. Item: CC(=O)N[C@H]1Cc2ccc([N+](=O)[O-])c(c2)Oc2ccc(cc2)CC[C@@H](C(=O)N[C@@H](CC(C)C)C(=O)[C@@]2(C)CO2)NC(=O)[C@H](CC(C)C)NC1=O [15b]
> 130 µM

Dear colleague, I am looking for the recorded IC50 of the following compound: CC(C)C[C@@H](C=O)NC(=O)[C@@H]1Cc2ccc(cc2)Oc2cc(ccc2[N+](=O)[O-])C[C@H](NC(=O)OCc2ccccc2)C(=O)N[C@@H](CC(C)C)C(=O)N1 [compound 16, reference compound]
3.1 µM

Every entry's value here was drawn from paper PMC11017298.
